Experiment: Lipophilicity, log D of the compound at pH 7.4 by chromatographic method
Settings: buffer
quantityMeasured: chromatographic logD

Guide cases for chromatographic logD, answers given:
NC(=O)C[C@H]1CC[C@H](c2ccc(-c3cncc(C(N)=O)n3)cc2)CC1    0.9
CNC(=O)c1cnc(C)c(-c2ccc([C@H]3CC[C@H](CC(=O)O)CC3)cc2)n1    0.9
CCc1nc(C)c(C(N)=O)nc1-c1ccc([C@H]2CC[C@H](CC(=O)O)CC2)cc1    1.7
Cc1nc(C)c(-c2ccc([C@H]3CC[C@@H](CC(=O)O)CC3)c(F)c2)nc1C(N)=O    1.2
Cc1nc(C(C)C)c(-c2ccc([C@H]3CC[C@H](CC(=O)O)CC3)cc2)nc1C(N)=O    2.6

P = Cc1ccc(C(N)=O)nc1-c1ccc([C@H]2CC[C@H](CC(=O)O)CC2)cc1
Q = Cc1nc(C)c(-c2ccc([C@H]3CC[C@H](CCO)CC3)cc2)nc1C(N)=O
R = Cc1nc(C)c(-c2ccc([C@H]3CC[C@H](CC(=O)NC(C)(C)C(=O)O)CC3)cc2)nc1C(N)=O
## Task Order these by chromatographic logD, descending, and give the full ranking. Would you mind listing the labels in the order requested?
## Result Q, P, R

---

Assay: Lipophilicity, log D of the compound at pH 7.4 by chromatographic method
Conditions: buffer
quantityMeasured: chromatographic logD

Cc1nc(C)c(-c2ccc(C34CCC(CC(=O)O)(CC3)CC4)cc2)nc1C(N)=O    1.3

I = Cc1nc(-c2ccccc2)c(-c2ccc([C@H]3CC[C@H](CC(=O)O)CC3)cc2)nc1C(N)=O
II = Cc1nc(C)c(-c2ccc([C@H]3CC[C@H](CC(N)=O)CC3)cc2)nc1C(N)=O
III = Cc1ncc(C(N)=O)nc1-c1ccc([C@H]2CC[C@H](CC(=O)O)CC2)cc1
## Task Order these by chromatographic logD, descending, and give the full ranking. Would you mind listing the labels in the order requested?
## Result I, II, III
(I: 2.5, II: 1.7, III: 0.3)

1 = Cc1nc(C)c(-c2ccc([C@H]3CC[C@H](CC(=O)NS(C)(=O)=O)CC3)cc2)nc1C(N)=O
2 = NC(=O)c1nc(-c2ccc([C@H]3CC[C@H](CC(=O)O)CC3)cc2)cnc1N
## Task # query: argmin of chromatographic logD over 1 and 2 Please respond with the label that marks your chosen entry.
## Result 2
(2: 0.5, 1: 0.9)

I = Cc1nc(C)c(-c2ccc3c(c2)CC[C@]32CC[C@@H](c3nnn[nH]3)CC2)nc1C(N)=O
II = NC(=O)c1cncc(-c2ccc([C@H]3CC[C@H](CCO)CC3)cc2)n1
III = Cc1ncc(C(=O)N2CCOCC2)nc1-c1ccc([C@H]2CC[C@H](CC(=O)O)CC2)cc1
## Task Order these by chromatographic logD, descending, and give the full ranking. Would you mind listing the labels in the order requested?
## Result II, I, III

a = Cc1nc(C)c(-c2ccc([C@H]3CC[C@H](CC(=O)O)CC3)c(Cl)c2)nc1C(N)=O
b = Cc1ncc(C(=O)NCc2ccccc2)nc1-c1ccc([C@H]2CC[C@H](CC(=O)O)CC2)cc1
c = NC(=O)c1cccc(-c2ccc([C@H]3CC[C@H](CC(=O)O)CC3)cc2)n1
## Task Reorder the items by chromatographic logD, least to greatest. Would you mind listing the labels in the order requested?
## Result c, a, b
(c: 0.8, a: 1.8, b: 2.7)
